Experiment: BSK_CASM3C_Proliferation: Cell Proliferation Assessment in the BioMAP Diversity Plus: CASM3C Assay (AID 2283047);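 note: sulforhodamine B total protein stain as relative cell number at 560 nm; sub-confluent cells exposed 48 h before staining; fitted both ways against DMSO so gain or loss of cell number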
Conditions: primary human coronary artery smooth muscle cells
The source made the active and inactive calls. Rule for the calls: active = hit-call score of the fitted dose curve at least 0.9, where 1 is the maximum; inactive = score below 0.9.
quantity: AC50

>>> result("CC(C)(c1cc(Cl)c(O)c(Cl)c1)c1cc(Cl)c(O)c(Cl)c1")
"32.6 µM (active)"
>>> result("N#CCCCCC#N")
"inactive"
>>> result("O=c1[nH]c(Cl)c(Cl)cc1Cl")
"inactive"
>>> result("C=CCN(CC=C)C(=O)C(Cl)Cl")
"inactive"
>>> result("O=P1(NCCCl)OCCCN1CCCl (stereo not given)")
"inactive"
>>> result("CCc1cc(C)cc(CC)c1-c1c(OC(=O)C(C)(C)C)n2n(c1=O)CCOCC2")
"20 µM (active)"
>>> result("COC(C)(C)CCC[C@H](C)C/C=C/C(C)=C/C(=O)OC(C)C")
"17.2 µM (active)"
>>> result("Oc1cc(Cl)ccc1Cl")
"inactive"
>>> result("CCCCCCCCCCCC#N")
"inactive"
>>> result("CCCC[N+](CCCC)(CCCC)CCCC")
"inactive"

---

Assay: BSK_BT_PBMCCytotoxicity: PBMC Cytotoxicity Assessment in the BioMAP Diversity Plus: BT Assay (AID 2284225);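 note: PBMC viability measured by Alamar Blue dye reduction fluorescence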
Details: primary human B cells with PBMC
Active and inactive are the calls of the source. How the source made its calls: active means hit-call score of the fitted dose curve at least 0.9, where 1 is the maximum; inactive means score below 0.9.
Classes used: 1 for active, 0 for inactive

>>> assignedclass("CC(=O)/C=C/c1ccccc1")
1
>>> assignedclass("Oc1cc(Cl)ccc1Cl")
0
>>> assignedclass("Nc1ccc(-c2ccc(N)c(N)c2)cc1N")
0
>>> assignedclass("Cc1ccc(OP(=O)(Oc2ccc(C)cc2)Oc2ccc(C)cc2)cc1 (tested in a mixture with another compound)")
1
>>> assignedclass("CNC(=O)Oc1cc(C)c(SC)c(C)c1")
1
>>> assignedclass("CC(C)(C)C(O)C(Oc1ccc(-c2ccccc2)cc1)n1cncn1 (centres undefined)")
0
>>> assignedclass("CCCCCCCCCCCC#N")
0
>>> assignedclass("COCC(=O)N(c1c(C)cccc1C)N1CCOC1=O")
0
>>> assignedclass("CCCOC(=O)c1ccccc1C(=O)OCCC")
0

---

Target: Hepatocyte nuclear factor 6 (Homo sapiens)
Test: ATG_HNF6_CIS: Attagene CIS-FACTORIAL HepG2 Assay for human Hepatocyte Nuclear Factor 6 (HNF6) (AID 2282952)
Conditions: HepG2 Attagene cis-factorial HNF6 reporter transcription; actives raise or lower the signal
Active and inactive are the calls of the source. How the source made its calls: active means hit-call score of the fitted dose curve at least 0.9, where 1 is the maximum; inactive means score below 0.9.
Possible outcomes: active, inactive

>>> assignedclass("Cc1ccc(N(SC(F)(Cl)Cl)S(=O)(=O)N(C)C)cc1")
"inactive"
>>> assignedclass("NNc1ccccc1")
"inactive"
>>> assignedclass("O=[N+]([O-])c1cc([N+](=O)[O-])c2ccccc2c1")
"inactive"
>>> assignedclass("c1ccc2c(c1)CCCC2")
"inactive"
>>> assignedclass("CC(C)(Cl)Cl")
"inactive"
>>> assignedclass("CC1OC(C)OC(C)O1 (stereo not given)")
"inactive"
>>> assignedclass("Cc1ccc(C)c2ccccc12")
"inactive"
>>> assignedclass("[N-]=[N+]=CC(=O)OC[C@H](N)C(=O)O")
"inactive"
>>> assignedclass("O=P(O)(Oc1ccccc1)Oc1ccccc1")
"inactive"
>>> assignedclass("CC(C)COP(=O)(OCC(C)C)OCC(C)C")
"inactive"
>>> assignedclass("CCC1CCC(=O)O1 (stereo not given)")
"inactive"
>>> assignedclass("CC(Cc1ccc(C(C)(C)C)cc1)CN1C[C@@H](C)O[C@@H](C)C1 (stereo not given in full)")
"inactive"
>>> assignedclass("C=C(Cl)CCl")
"inactive"
>>> assignedclass("COCC(=O)N(c1c(C)cccc1C)N1CCOC1=O")
"inactive"
>>> assignedclass("Cc1ncc(C[n+]2csc(CCO)c2C)c(N)n1")
"inactive"
>>> assignedclass("C=CC(=O)OCC(CC)CCCC (stereo not given)")
"inactive"
>>> assignedclass("CC(=O)C=Cc1ccccc1")
"active"
>>> assignedclass("CC(C)C(=O)Cl")
"inactive"
>>> assignedclass("O=S(=O)(c1ccccc1)c1ccccc1")
"inactive"
>>> assignedclass("CCNCC")
"inactive"
>>> assignedclass("Nc1ccc(-c2ccc(N)c(N)c2)cc1N")
"inactive"
>>> assignedclass("CC(=O)/C=C/c1ccccc1")
"active"
>>> assignedclass("c1cc(OCC2CO2)ccc1Cc1ccc(OCC2CO2)cc1 (stereo not given)")
"active"
>>> assignedclass("CCOC(=O)COc1ccc(Cl)cc1Cl")
"inactive"
>>> assignedclass("CC[N+](=O)[O-]")
"inactive"
>>> assignedclass("CCCOC(=O)c1ccccc1C(=O)OCCC")
"inactive"
>>> assignedclass("O=C(CCl)c1ccccc1")
"inactive"
>>> assignedclass("[Cl][Sb]([Cl])[Cl]")
"inactive"
>>> assignedclass("CC1CCCC1.[C-]#[O+].[C-]#[O+].[C-]#[O+].[Mn]")
"inactive"
>>> assignedclass("C[N+](C)(C)CC(=O)O")
"inactive"
>>> assignedclass("N#CC(c1ccccc1)c1ccccc1")
"inactive"
>>> assignedclass("CCCCCCCCCCCC#N")
"inactive"
>>> assignedclass("CCCC=NO")
"inactive"
>>> assignedclass("O=[N+]([O-])C=Cc1ccccc1")
"inactive"
>>> assignedclass("Nc1ccccc1")
"inactive"

---

Experiment: CCTE_Shafer_MEA_dev_spike_duration_mean: CCTE's Neural Network Formation Assay for Mean Spike Duration, Shafer Lab (AID 2284051);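 note: mean network spike duration pooled as area under curve over DIV 5 to 12 recordings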
Active and inactive are the calls of the source. Rule for the calls: active = hit-call score of the fitted dose curve at least 0.9, where 1 is the maximum; inactive = score below 0.9.
Labels: active, inactive

>>> assignedclass("O=[As]O")
"active"
>>> assignedclass("[CH3][Hg][Cl]")
"active"
>>> assignedclass("CC(C)CCCCCCCOP(=O)(Oc1ccccc1)Oc1ccccc1")
"inactive"
>>> assignedclass("CCOP(=O)(OCC)SCSC(C)(C)C")
"inactive"
>>> assignedclass("O.O.O.O.O.[Cd+2].[Cd+2].[Cl-].[Cl-].[Cl-].[Cl-]")
"active"
>>> assignedclass("CC1(C)[C@H](C(=O)O[C@H](C#N)c2cccc(Oc3ccccc3)c2)[C@@H]1C=C(Br)Br")
"active"
>>> assignedclass("C=CCN1CC[C@]23c4c5ccc(O)c4O[C@H]2C(=O)CC[C@@]3(O)[C@H]1C5")
"inactive"
>>> assignedclass("CCCCC(CC)COC(=O)c1cc(Br)c(Br)c(Br)c1Br (stereo unspecified)")
"active"
>>> assignedclass("CCOP(=O)(OCC)SCSCC")
"inactive"
>>> assignedclass("C[n+]1ccc(-c2ccccc2)cc1")
"inactive"
>>> assignedclass("[CH3][Sn]([CH3])[CH3]")
"active"

---

Experiment: BSK_LPS_PGE2: BioMAP Diversity Plus: LPS Assay for Prostaglandin E2 (PGE2) Biomarker Activity (AID 2283082)
Conditions: primary human HUVEC with PBMC; actives raise or lower the signal
Activity calls are given as the source filed them. The calls were made as follows: active = hit-call score of the fitted dose curve at least 0.9, where 1 is the maximum; inactive = score below 0.9.
Classes used: active, inactive

>>> assignedclass("CCc1cc(C)cc(CC)c1-c1c(OC(=O)C(C)(C)C)n2n(c1=O)CCOCC2")
"inactive"
>>> assignedclass("O=[N+]([O-])C=Cc1ccccc1")
"active"
>>> assignedclass("CCCC[N+](CCCC)(CCCC)CCCC")
"inactive"
>>> assignedclass("Cc1ccc(OP(=O)(Oc2ccc(C)cc2)Oc2ccc(C)cc2)cc1 (tested in a mixture with another compound)")
"inactive"
>>> assignedclass("O=[N+]([O-])O")
"inactive"
>>> assignedclass("CCCCCCCCCCCC#N")
"active"
>>> assignedclass("O=P1(NCCCl)OCCCN1CCCl (stereo not drawn)")
"inactive"
>>> assignedclass("O=c1[nH]c(Cl)c(Cl)cc1Cl")
"inactive"

---

Target: Estrogen-related receptor gamma (Homo sapiens) (UniProt P62508)
Sequence (P62508 whole entry, looked up): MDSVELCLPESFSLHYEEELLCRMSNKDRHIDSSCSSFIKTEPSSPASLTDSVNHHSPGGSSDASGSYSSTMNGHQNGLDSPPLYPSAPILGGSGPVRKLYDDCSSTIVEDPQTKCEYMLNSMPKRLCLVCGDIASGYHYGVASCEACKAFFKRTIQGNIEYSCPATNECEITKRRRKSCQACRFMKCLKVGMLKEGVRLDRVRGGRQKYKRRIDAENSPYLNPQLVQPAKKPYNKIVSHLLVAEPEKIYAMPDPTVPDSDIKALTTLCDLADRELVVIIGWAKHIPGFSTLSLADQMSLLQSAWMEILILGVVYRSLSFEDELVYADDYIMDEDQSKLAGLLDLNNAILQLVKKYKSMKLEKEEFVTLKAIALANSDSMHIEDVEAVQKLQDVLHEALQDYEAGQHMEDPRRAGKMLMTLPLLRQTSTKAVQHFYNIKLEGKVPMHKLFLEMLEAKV
Experiment: ATG_ERRg_TRANS: Attagene TRANS-FACTORIAL HepG2 Assay for human Estrogen-Related Receptor gamma (ERRg) (AID 2282977);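 note: hits increase reporter signal over DMSO so potencies reflect activators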
Conditions: HepG2 Attagene TRANS reporter, ERRg transactivation
Results filed as inconclusive are left out. The source made the active and inactive calls. How the source made its calls: active means hit-call score of the fitted dose curve at least 0.9, where 1 is the maximum; inconclusive means response in the unintended direction; inactive means score below 0.9.
quantity: outcome

>>> result("CCOC(=O)NC(=S)Nc1ccccc1NC(=S)NC(=O)OCC")
"inactive"
>>> result("Cc1ccc(N(SC(F)(Cl)Cl)S(=O)(=O)N(C)C)cc1")
"inactive"
>>> result("N#CCNCC#N")
"inactive"
>>> result("CC(C)c1ccc(O)cc1")
"inactive"
>>> result("CC1(C)CC(=O)CC(C)(C)N1[O]")
"inactive"
>>> result("CCNCC")
"inactive"
>>> result("CC(C)CCCCCCCOC(=O)c1ccccc1C(=O)OCCCCCCCC(C)C")
"inactive"
>>> result("C#CC1(O)CCCCC1")
"inactive"
>>> result("S=c1[nH]c2ccccc2[nH]1")
"inactive"
>>> result("Cc1ccccc1CCl")
"inactive"

---

Assay: TOX21_p53_BLA_p2_viability: Viability Assessment in the Tox21 HCT-116 p53 Agonism Beta-lactamase Assay, Phase 2 (AID 2283591);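 note: compound exposure lasted 16 h at 37 °C; actives lower the ATP signal meaning cytotoxicity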
Inconclusive results are not listed. Calls of active or inactive are those of the source. The calls were made as follows: active = hit-call score of the fitted dose curve at least 0.9, where 1 is the maximum; inconclusive = response in the unintended direction; inactive = score below 0.9.
quantity: outcome

>>> result("CCOC(=O)NC(C)(C)Cc1ccc(Cl)cc1")
"inactive"
>>> result("CCCCOC(=O)CCC(=O)OCCCC")
"inactive"
>>> result("CC(O)CN(CC(C)O)CC(C)O (stereo not drawn)")
"inactive"

These entries and their values trace back to PubChem BioAssay (EPA / NIEHS).
